Each recorded value in this set is attributed to paper PMC9482650.

ASSAYED_SYSTEM: T1, SYNJ2BP, P57105
T1 sequence (P57105 8-110, limits assumed, looked up): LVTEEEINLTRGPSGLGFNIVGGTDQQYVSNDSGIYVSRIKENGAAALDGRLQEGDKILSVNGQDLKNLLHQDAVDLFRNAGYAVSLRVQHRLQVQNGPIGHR
ASSAY_PROTOCOL: holdup assay
Parameters: key: below the threshold = too weak to quantify, mostly under pKd 3.1 to 4
MEASUREMENT_CONDITIONS: plain residues with an end cap or a label only (N-terminal biotin on a linker: ahx)
READOUT_LABEL: pKd

HSATSVHTSV [MTMR1, Q13613]; 4.42
KEYDDELTFF [USH1C, Q9Y6N9]; below the threshold
SKKNELFSNL [NHERF1, O14745]; below the threshold
AKPQPVDSWV [ARVCF, O00192]; 5.04
YNSFLSVTTV [PDZRN3, Q9UPQ7]; below the threshold
ADENEQVSAV [RAPGEF6, Q8TEU7]; 3.74
